assay: pKa of amine lipid by TNS fluorescence; type: physicochemical; settings: probe TNS (6-(p-toluidino)-2-naphthalenesulfonic acid sodium salt), unformulated amine lipid in ethanol, sodium phosphate buffers -9.0
# maps each entry to its pKa
Write the value as a bare number.

Field: example entries. Status: answers known.
compound: CCCCC/C=C\C/C=C\CCCCCCCC(=O)OCC(COC(=O)CCCCCCC/C=C\C/C=C\CCCCC)OC(=O)CCC(CCCC)OC(=O)NCC1CCCN1C (stereo not drawn)
reported-endpoint: pKa
test-result: 6.43

compound: CCCCC/C=C\C/C=C\CCCCCCCC(=O)OCC(COC(=O)CCCCCCC/C=C\C/C=C\CCCCC)OC(=O)CCC(CCCCC(C)C)OC(=O)NCCN1CCCC1 (stereo not drawn)
reported-endpoint: pKa
test-result: 6.71

compound: CCCCC/C=C\C/C=C\CCCCCCCC(=O)OCC(COC(=O)CCCCCCC/C=C\C/C=C\CCCCC)OC(=O)CCC(CCCCCCCCCC)OC(=O)NCCN(C)CC (stereo not drawn)
reported-endpoint: pKa
test-result: 6.32

compound: CCCCC/C=C\C/C=C\CCCCCCCC(=O)OCC(COC(=O)CCCCCCC/C=C\C/C=C\CCCCC)OC(=O)CCC(CCCCCCCCCCCCCCCC)OC(=O)OCCCN(C)C (stereo not drawn)
reported-endpoint: pKa
test-result: 6.18

compound: CCCCC/C=C\C/C=C\CCCCCCCC(=O)OCC(COC(=O)CCCCCCC/C=C\C/C=C\CCCCC)OC(=O)CCC(CCCCC)OC(=O)NCCN1CCCC1 (stereo not drawn)
reported-endpoint: pKa
test-result: 7.01

Just so you know, measured pKa for CCCCC/C=C\C/C=C\CCCCCCCC(=O)OCC(COC(=O)CCCCCCC/C=C\C/C=C\CCCCC)OC(=O)CCC(CCCCCCCCCCCC)OC(=O)NCCN1CCCC1 (stereo not drawn) came out at 6.16
